Sourced from the RNAGym collection of RNA variant scans (doi:10.7554/elife.80360)

B1: CPEB3 Ribozyme (parent)
chain: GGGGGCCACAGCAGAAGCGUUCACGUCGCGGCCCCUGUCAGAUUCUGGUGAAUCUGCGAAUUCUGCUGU

Variants of: B1
Experiment: self-cleavage, relative activity (ratio to wild type); higher = more cleavage; co-transcriptional
READOUT KIND: self-cleavage

AGGGGCCACAGCAGAAGCGUUCACGUCGCGGCCCCGGUCAGAUUCUGGUGAAUCUGCGAAUUCUGCUGU [G1A U36G]: 0.0321

Problem: I am curious: what self-cleavage value has been reported for GGGGGCCACAUCAGAAGCGUUCACGUCGCGGCCCCUGUCAGAUUCUGGUGAAUCUGCAAAUUCUGCUGU [G11U G58A] ?
Solution: 0.846

Problem: I am curious: what self-cleavage value has been reported for GGGGGCCACAGCAGAAGCGUUCACCUCGCUGCCCCUGUCAGAUUCUGGUGAAUCUGCGAAUUCUGCUGU [G25C G30U] ?
Solution: 0.193

Problem: I am curious: what self-cleavage value has been reported for GGGGGCCGCAGCAGAAGCGUUCACGUCGCGGACCCUGUCAGAUUCUGGUGAAUCUGCGAAUUCUGCUGU [A8G C32A] ?
Solution: 0.701

Problem: I am curious: what self-cleavage value has been reported for GGGGGCCACAGCAGAAGCGUUCACGUCGCGGCCCCUGUCGGAUUCUGGUGAAUCUACGAAUUCUGCUGU [A40G G56A] ?
Solution: 0.949

Problem: I am curious: what self-cleavage value has been reported for GGGGGCCACAGCAUAAGCGUUCACGUCGCGGCCCCUCUCAGAUUCUGGUGAAUCUGCGAAUUCUGCUGU [G14U G37C] ?
Solution: 0.129
